Values from PubChem BioAssay (NCI)

assay: NCI Yeast Anticancer Drug Screen. Data for the sgs1 mgt1 strain (AID 161);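 further: 0% = growth of cultures given vehicle only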; conditions: S. cerevisiae sgs1 mgt1 strain, at 50.0 µM (retest, dose inferred, filed as 5.0), active compounds read high
This is part of a sample that, as a whole, favours compounds with a hit. Of some 79,000 tested, about 15% had one in any assay.
Please go through the items and note down their growth inhibition.
Answers are plain numbers, in %.

C[n+]1c(-c2ccc(/C=N/Nc3ccnc(N/N=C/c4ccc(-c5cn6ccccc6[n+]5C)cc4)n3)cc2)cn2ccccc21
99
Cc1c(O)ccc2c1OCC(c1ccc(Cl)cc1)C2 (stereo unspecified)
21
C#CCN(N=O)C(=O)NCCCC(NC(C)=O)C(=O)NCc1ccccc1 (stereo unspecified)
36
O=C(/C=C/C(=O)N1CCCC1)N1CCCC1
3
OCC(O)Cc1c(Cl)c(Cl)c(Oc2c(Cl)c(Cl)c(CC(O)CO)c(Cl)c2Cl)c(Cl)c1Cl (stereo unspecified)
16

I'm hoping you can list growth inhibition for every compound here, please.
1. COc1cccc(C=O)c1O
2. N#Cc1cccc(C[P+](c2ccccc2)(c2ccccc2)c2ccccc2)c1
3. CC(C)/C=C1\CCC(CN2CCOCC2)C1=O (stereo unspecified)
4. CN1CCN(CC(=O)c2c(-c3ccccc3)[nH]c3ccccc23)CC1
5. CCOC(=S)SSC(=S)NCCNC(=S)SSC(=S)OCC

[29, 38, 44, 7, 86]

----------
assay: NCI Yeast Anticancer Drug Screen. Data for the rad50 strain (AID 155);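 further: 0% = growth of vehicle-only cultures of the same strain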; details: S. cerevisiae rad50 strain growth inhibition; at 5.0 µM (retest, dose inferred, filed as 0.5); active compounds read high
About 79,000 compounds went through this panel and 15% of them were active in at least one assay; those are over-represented in the sample as a whole.
Please go through the items and note down their growth inhibition.
One number for each entry, in %.

Take a look at these entries with their results.
Nc1ccc(SC23CC4CC(CC(C4)C2)C3)cc1
1
O=C1OC(=O)c2ccc(S)c3cccc1c23
-35
C/C(=N\NC(=S)N(C)C)c1cccc(C)n1
76
CCC1C(c2cccc(OC)c2O)c2cc3c(cc2OC1N1CCCC1)OCO3 (centres undefined)
21
Clc1cc2c(c3ncccc13)OCN(CCc1ccccc1)C2
5

I'm hoping you can list growth inhibition for every molecule here, please.
1. CC(C)c1cc(=O)c2cc3[nH]c4ccccc4c3cc2[nH]1
2. CCOC(=O)/C(C)=N/Nc1cc(Cl)ccc1O
3. CCOC1NC(=S)N(C2CCCCC2)C1(C)C (centres undefined)
4. Cc1ccc(C2(C)CC/C(=N/O)c3cc(C)c(C)cc32)cc1C (centres undefined)

1. -2
2. 0
3. -2
4. 72

I'm hoping you can list growth inhibition for every molecule here, please.
1. Cc1nc(C)c(C(=O)NNC(=O)C[N+](C)(C)C)cc1C(=O)NNC(=O)C[N+](C)(C)C
2. C/C(=N\NC(=S)NCCCNC(=S)N/N=C(\C)c1ccccn1)c1ccccn1

66
8

----------
Please go through the items and note down their growth inhibition.
experiment: NCI Yeast Anticancer Drug Screen. Data for the sgs1 mgt1 strain (AID 161);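 further: 0% = growth of cultures given vehicle only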; settings: S. cerevisiae sgs1 mgt1 strain, at 50.0 µM (retest, dose inferred, filed as 5.0), active compounds read high
The panel holds about 79,000 compounds, 15% with a hit somewhere; the sample as a whole holds those more often.
Answers are plain numbers, in %.

Take a look at these entries with their results.
CC[n+]1ccc(Nc2ccc(NC(=O)c3ccc(C(=O)Nc4ccc(Nc5cc[n+](CC)c(N)n5)cc4)cc3)cc2)nc1N
99
Nc1cccc2c1[nH]c(=O)c1ccccc12
33
O=C1C=CCCCC1(c1ccccc1)c1ccccc1
15
O=[N+]([O-])/C(C(Cl)=C(Cl)Cl)=C(/Cl)SCc1ccccc1
99
CCOC(=O)/C=C1/C(=O)OC2C1OC1OC(C)(C)OC12 (stereo unspecified)
100

I'm hoping you can list growth inhibition for every compound here, please.
1. O=C(/C=C\c1cccc2ccccc12)c1ccccn1
2. CC(C)(COC(=O)Nc1cccc(Cl)c1)[N+](=O)[O-]
3. O=C1C(SCCO)=C(SCCO)C(=O)c2ccccc21

1. 99
2. 3
3. 66
